// IC50 collected for CDK2/Cyclin A2 (Homo sapiens)
Report the figure in nM without appending any unit label.

Problem: Form field: reported IC50 of N[C@H]1CCN(c2c3c(nc4ccc(-c5ccnc(NC(=O)C6CCCC6)c5)cc24)CCCCC3)C1
Result: 17.6

Problem: What value of IC50 has been recorded for this entry: N[C@H]1CCN(c2c3c(nc4ccc(-c5ccnc(NC(=O)C6CCCCC6)c5)cc24)CCCCC3)C1
Result: 59.5

Problem: Any idea what its IC50 is? The compound is N[C@H]1CCN(c2c3c(nc4ccc(-c5cc(NC(=O)C6CC6)ncn5)cc24)CCCCC3)C1
Result: 14.7
